System: HL-60(TB) leukemia
protocol notes: NCI tumour cell line growth inhibition, 48 h
Assign TGI to each entry below.

Worked cases, answers included:
1) Cc1nc(-n2nc(-c3ccccc3)cc2-c2ccccc2)sc1C(=O)CC(=O)C(=O)Nc1ccc(O)cc1 ... > 100 µM
2) NC(=S)NS(=O)(=O)c1ccc(Cl)cc1 ... > 100 µM
3) CC1CN=C(c2ccc(CN3CCC(CCCC4CCN(Cc5ccc(C6=NCC(C)N6)cc5)CC4)CC3)cc2)N1 (stereo unspecified) ... > 100 µM
4) COC(=O)C(C)Oc1ccc(O)cc1 (stereo unspecified) ... > 100 µM

For each entry beneath this line, provide reported TGI.
1. Oc1ccc(O)c(-n2cccn2)c1-n1cccn1
2. CC1=C(C(=O)NCc2ccccc2)C(c2ccco2)C(C(=O)NCc2ccccc2)=C(C)N1
3. Cc1cn2cc(-c3ccc4c(c3)CC(=O)N4)nc2s1

OUT:
1. > 10 µM
2. > 100 µM
3. > 100 µM
